- protocol_notes: yeast display, Sf9 membrane polyspecificity reagent, FACS + sequencing; frameworks hold sequencing errors
metric_name: polyreactivity (PSR sort gate)

[[record]]
seq_text = "QVQLVESGGGLVQAGGSLRLSCAASGRTFPGYAMGWYRQAPGTEMEMVAAISSGGGTKYADSVKGRFTISRDNAKYTVYVQMNSLKPEDTAVFYCAARGGTYHWGRYYWRQYDYWGQGTQVTVSS"
endpoint_result = "high polyreactivity"

[[record]]
seq_text = "QVQLVESAGGLVQAGGSLRLSCAASGTIFALYAMGWYRQAPGKERELVARITRGGGSTYYADSVKGRFTISRDNAKNTVYLQMNSLKPEDTAVYYCAAARWSQYRTWMNYWGQGTQVTVSS"
endpoint_result = "high polyreactivity"

[[record]]
seq_text = "QVQLVESGGGLVQAGGSLRLICAASGATFVDYTMGWYRQAPGKERELVAAITVSAGSTYYADSVKGRFTISRDNAKNTVYLQMNSLKPEDTAVYYCAKATSSFYHYRYDYWGQGTQVTVSS"
endpoint_result = "low polyreactivity"

[[record]]
seq_text = "QVHLVESGGGLVQAGGSLRLSCAASGYIFTGYAMGCYRQAPGKERELVATINTDGDSTYYADSVKGRFTISRDNAKNTVYLQMNSLKPEDTAVYYCNKRLTQAYDDQVGYDYWGQGTQVTVSS"
endpoint_result = "low polyreactivity"


We now examine a further sequence.
Measured polyreactivity (PSR sort gate) of QFQLVESGGGLVQAGGSIRSSCAASGIIFWGNAMGWYRQAPGKESELVATITGRGGSTYYADSVKGRFTISRDNAKNTVYLQMNSLKPEDTAVYYCNADSSRYYRALEYWGQGTQVTVSS : low polyreactivity
